Reference source: patent US20090175852A1

TARGET_OF_ASSAY: Mk2 (Homo sapiens)
Sequence (P49137 whole entry, species assumed): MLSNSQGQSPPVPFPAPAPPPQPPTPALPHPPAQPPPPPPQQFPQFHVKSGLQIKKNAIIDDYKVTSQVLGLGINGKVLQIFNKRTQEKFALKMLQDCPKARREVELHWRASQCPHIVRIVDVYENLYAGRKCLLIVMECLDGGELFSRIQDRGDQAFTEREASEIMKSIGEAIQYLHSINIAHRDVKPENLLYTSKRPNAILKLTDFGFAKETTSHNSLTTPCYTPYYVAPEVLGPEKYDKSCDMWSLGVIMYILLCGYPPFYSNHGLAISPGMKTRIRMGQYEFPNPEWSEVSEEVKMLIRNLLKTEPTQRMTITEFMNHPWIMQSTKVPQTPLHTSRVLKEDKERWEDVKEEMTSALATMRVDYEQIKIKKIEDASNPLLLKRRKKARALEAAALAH
MEASUREMENT_TYPE: IC50 (nM)
Answers are plain numbers, in nM.

Entry NC(=O)c1cnc(N[C@H]2CC[C@H](N)CC2)c2nc(-c3ccc(Cl)cc3)cn12 [Compound 12] under Mk2 (Homo sapiens) had IC50 of 60
